# Test system: Wnt5a (protein binding on small-molecule microarray)
# Protocol Description: Wnt5a binders on small-molecule microarray, primary screen, biophysical, 635/667 nm fluorescence (AID 1142);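 note: fluorescence read at 667 nm with signal to noise per printed feature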
# Run Conditions: 635 nm fluorescence, higher = more signal
Use 0.3 as the dividing line for composite z-score, with the line itself on the t side and lower values as f.

Compound: C=CC[C@]1(C(=O)OC)N=C(c2ccc(OCCCO)cc2)O[C@H]1c1ccccc1CN=[N+]=[N-]
Assigned Category: t

**Query** Determine whether this compound has composite z-score no lower than 0.3: CC(C)CNC(=O)[C@@]1(C)c2ccccc2C(=O)N(Cc2ccc(OC(F)(F)F)cc2)[C@H]1c1ccc(CO)cc1
**Result** f

**Query** Given the entry CO[C@H]1COC(=O)[C@H](C)COC(=O)[C@H](Cc2ccccc2)NC(=O)CC=C[C@H]1C , answer whether its composite z-score meets or surpasses 0.3.
**Result** f

**Query** Does composite z-score meet or surpass 0.3 for CC(=O)NCCCC[C@@H]1NC(=O)[C@@H]2C[C@H](C(=O)NCCCCCCN(C)C)[C@H](c3ccc(O)cc3)N2C1=O ?
**Result** t

**Query** Identify whether the reported composite z-score of the following compound is 0.3 or greater: CCc1cccc(NC(=O)O[C@H]2[C@H](OC(=O)Nc3ccccc3)[C@@H](OC(=O)Nc3ccccc3)[C@@H](OC)O[C@@H]2CO)c1
**Result** t

**Query** Assess whether reported composite z-score for C[C@H]1NC(=O)[C@@H](C)NC(=O)[C@@]23C(=O)N[C@@H](Cc4ccccc4)C2[C@H](C)[C@@]2(C)O[C@H]2C3/C=C/C/C=C\CNC1=O (some centres not stated) sits at 0.3 or higher.
**Result** f

**Query** Determine whether measured composite z-score meets or exceeds 0.3 for CO[C@H]1COC(=O)CC=C[C@@H](C)COC(=O)[C@@H](C)NC(=O)CC=C[C@@H]1C
**Result** f
